Some molecules, each annotated with its measured logP.

Worked examples, 6 molecules total:
{"Smiles representation": "CCc1ccc(N2C(=O)CCC2=O)cc1", "logP": 1.1}
{"Smiles representation": "O=C1CCC(=O)N1c1ccc(Cl)cc1", "logP": 0.96}
{"Smiles representation": "O=C1CCC(=O)N1c1ccc([N+](=O)[O-])cc1", "logP": 0.46}
{"Smiles representation": "Cc1ccccc1N1C(=O)CCC1=O", "logP": 0.29}
{"Smiles representation": "O=C1CCC(=O)N1c1ccc(F)cc1", "logP": 0.29}
{"Smiles representation": "O=C1CCC(=O)N1c1cccc(Br)c1", "logP": 1.09}

Qu. State the recorded logP for this entry: COC(=O)c1cccc(N2C(=O)CCC2=O)c1
Ans. 0.36

Qu. State the recorded logP for this entry: O=C1CCC(=O)N1c1ccccc1Cl
Ans. 0.56

Qu. State the recorded logP for this entry: O=C1CCC(=O)N1c1ccccc1Br
Ans. 0.65

Qu. State the recorded logP for this entry: COc1ccccc1N1C(=O)CCC1=O
Ans. -0.02

---

Assay: method code SF-AS, from DOI: 10.1016/0048-3575(79)90081-6
Conditions: pH 7.4
Assay endpoint: logD

Qu. State the recorded logD for this entry: O=C1CCC(=O)N1c1cccc(I)c1
Ans. 1.39

---

Experiment: method code SF-AS, from DOI: 10.1016/0048-3575(79)90081-6
Assay endpoint: logP

Worked examples, 10 molecules total:
{"Smiles representation": "O=C1CCC(=O)N1c1cccc(F)c1", "logP": 0.38}
{"Smiles representation": "CCc1ccccc1N1C(=O)CCC1=O", "logP": 0.64}
{"Smiles representation": "O=C1CCC(=O)N1c1ccccc1[N+](=O)[O-]", "logP": 0.36}
{"Smiles representation": "O=C1CCC(=O)N1c1ccccc1C(F)(F)F", "logP": 0.76}
{"Smiles representation": "O=C1CCC(=O)N1c1cccc([N+](=O)[O-])c1", "logP": 0.38}
{"Smiles representation": "CCc1cccc(N2C(=O)CCC2=O)c1", "logP": 1.04}
{"Smiles representation": "O=C1CCC(=O)N1c1ccccc1", "logP": 0.06}
{"Smiles representation": "Cc1cccc(N2C(=O)CCC2=O)c1", "logP": 0.57}
{"Smiles representation": "O=C1CCC(=O)N1c1cccc(Cl)c1", "logP": 0.98}
{"Smiles representation": "O=C1CCC(=O)N1c1ccc(Br)cc1", "logP": 1.18}

Qu. State the recorded logP for this entry: O=C1CCC(=O)N1c1ccccc1F
Ans. 0.22

Qu. State the recorded logP for this entry: O=C1CCC(=O)N1c1ccccc1I
Ans. 0.8

Qu. State the recorded logP for this entry: Cc1ccc(N2C(=O)CCC2=O)cc1
Ans. 0.58

Qu. State the recorded logP for this entry: N#Cc1cccc(N2C(=O)CCC2=O)c1
Ans. 0.02
